- TEST TARGET: NLRP3 (Homo sapiens, UniProt Q96P20)
- Construct: host or cells: THP-1 cells, PMA-differentiated, LPS-primed, nigericin-stimulated
- Sequence (Q96P20 whole entry): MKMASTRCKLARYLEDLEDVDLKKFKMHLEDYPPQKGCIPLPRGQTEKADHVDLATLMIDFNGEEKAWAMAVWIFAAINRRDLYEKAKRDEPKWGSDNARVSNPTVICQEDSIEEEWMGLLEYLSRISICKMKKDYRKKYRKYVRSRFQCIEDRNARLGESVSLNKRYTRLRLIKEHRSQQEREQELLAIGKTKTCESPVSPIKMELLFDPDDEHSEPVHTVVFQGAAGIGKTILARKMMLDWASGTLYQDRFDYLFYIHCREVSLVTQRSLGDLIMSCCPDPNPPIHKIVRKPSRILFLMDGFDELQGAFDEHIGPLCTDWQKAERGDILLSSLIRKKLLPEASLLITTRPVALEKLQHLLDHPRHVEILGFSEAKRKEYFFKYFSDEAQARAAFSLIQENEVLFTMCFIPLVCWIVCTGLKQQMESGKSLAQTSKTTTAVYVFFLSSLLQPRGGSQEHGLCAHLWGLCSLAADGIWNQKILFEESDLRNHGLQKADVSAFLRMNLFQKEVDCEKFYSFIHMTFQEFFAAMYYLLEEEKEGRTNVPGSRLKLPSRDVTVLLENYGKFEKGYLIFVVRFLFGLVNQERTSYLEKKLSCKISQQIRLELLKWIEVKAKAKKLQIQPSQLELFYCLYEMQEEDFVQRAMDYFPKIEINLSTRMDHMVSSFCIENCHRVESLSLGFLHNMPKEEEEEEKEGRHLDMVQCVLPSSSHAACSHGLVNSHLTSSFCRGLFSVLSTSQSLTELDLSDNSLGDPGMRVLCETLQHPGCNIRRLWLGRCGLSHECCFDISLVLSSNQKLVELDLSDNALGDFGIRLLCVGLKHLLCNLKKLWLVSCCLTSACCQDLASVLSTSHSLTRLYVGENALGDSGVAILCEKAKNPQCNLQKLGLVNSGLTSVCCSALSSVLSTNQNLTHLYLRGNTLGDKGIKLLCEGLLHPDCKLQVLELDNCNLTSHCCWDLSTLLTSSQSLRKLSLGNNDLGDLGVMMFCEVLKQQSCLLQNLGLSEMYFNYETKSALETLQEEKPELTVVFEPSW
- ASSAY COMMENT: THP-1 pyroptosis assay (caspase-1 p20 in supernatant by Western blot)
- Type: cell-based
- CONDITION PARAMETERS: PMA-differentiated THP-1, LPS 50 ng/ml 4 h, compound 30 min, nigericin 15 μM 45 min; caspase-1 p20 Western blot
Could you please report measured IC50 for the items listed next?

Use the examples below as a reference point.
1. CCN1CCN(c2nc3nn(-c4ccc(C5CC5)cc4C(F)(F)F)nc3c(=O)[nH]2)CC1 [Compound 100]    < 100 nM
2. Cc1cc(Cl)cc(C)c1-n1nc2nc(N3CCCC3)[nH]c(=O)c2n1 [Compound 63]    10 nM
3. Cc1cc(Br)cc(C)c1-n1nc2nc(N3CCCC3)[nH]c(=O)c2n1 [Compound 51]    < 5 nM

Your task in this section: give IC50 for each listed record.
1. Cc1cc(C2CC2)cc(C)c1-n1nc2nc(N(C)CCN(C)C)[nH]c(=O)c2n1 [Compound 101]
2. Cc1cc(C2CC2)cc(F)c1-n1nc2nc(N3CCOCC3)[nH]c(=O)c2n1 [Compound 104]
3. O=c1[nH]c(N2CCCC2)nc2nn(-c3ccc(Br)cc3Cl)nc12 [Compound 97]
4. O=c1[nH]c(N2CCOCC2)nc2nn(-c3c(F)cc(C4CC4)cc3C(F)(F)F)nc12 [Compound 105]
5. Cc1cc(Br)cc(C)c1-n1nc2nc(N3CCCC3)[nH]c(=S)c2n1 [Compound 52]

**A:**
1. < 10 nM
2. < 6 nM
3. 5 nM
4. < 6 nM
5. < 50 nM

====

- TEST TARGET: NLRP3 (Homo sapiens, UniProt Q96P20)
- Construct: host or cells: THP-1 cells, PMA-differentiated, LPS-primed, nigericin-stimulated
- ASSAY COMMENT: THP-1 pyroptosis assay (caspase-1 p20 in supernatant by Western blot)
- Format: cell-based
- CONDITION PARAMETERS: PMA-differentiated THP-1, LPS 50 ng/ml 4 h, compound 30 min, nigericin 15 μM 45 min; caspase-1 p20 Western blot
pIC50: −log10 of the molar value.
Could you please report measured pIC50 for the items listed next?

Your task in this section: give pIC50 for each listed record.
1. Cc1cc(C2CC2)cc(C)c1-n1nc2nc(N3CCCC3)[nH]c(=S)c2n1
2. O=c1[nH]c(N2CCCC2)nc2nn(-c3ccc(Br)cc3C(F)(F)F)nc12
3. O=c1[nH]c(N2CCCC2)nc2nn(-c3ccc(C4CC4)cc3C(F)(F)F)nc12
4. O=c1[nH]c(N2CCOCC2)nc2nn(-c3c(F)cc(C4CC4)cc3Cl)nc12

**A:**
["> 7.00", 8.60, "> 8.00", "> 8.00"]

====

- TEST TARGET: NLRP3 (Homo sapiens, UniProt Q96P20)
- Construct: host or cells: THP-1 cells, PMA-differentiated, LPS-primed, nigericin-stimulated
- ASSAY COMMENT: IL-1β assay (ELISA of THP-1 culture supernatant)
- Type: cell-based
- CONDITION PARAMETERS: PMA-differentiated THP-1, LPS 50 ng/ml 4 h, compound 30 min, nigericin 15 μM 45 min; Human IL-1β ELISA
pIC50: −log10 of the molar value.
ATTRIBUTE MEASURED: pIC50

1) CCN1CCN(c2nc3nn(-c4ccc(C5CC5)cc4C(F)(F)F)nc3c(=O)[nH]2)CC1 [Compound 100]    > 6.70
2) Cc1cc(C2CC2)cc(C)c1-n1nc2nc(N3CCOCC3)n(C)c(=O)c2n1 [Compound 108]    > 6.30
3) CCN1CCN(c2nc3nn(-c4c(C)cc(C5CC5)cc4C)nc3c(=O)[nH]2)CC1 [Compound 102]    < 7.00

In the following, a different compound is considered.
Entry O=c1[nH]c(N2CCOCC2)nc2nn(-c3c(F)cc(C4CC4)cc3C(F)(F)F)nc12 [Compound 105] , tested on NLRP3 (Homo sapiens, UniProt Q96P20), has a reported pIC50 of > 8.00

====

- TEST TARGET: NLRP3 (Homo sapiens, UniProt Q96P20)
- Construct: host or cells: THP-1 cells, PMA-differentiated, LPS-primed, nigericin-stimulated
- ASSAY COMMENT: THP-1 pyroptosis assay (caspase-1 p20 in supernatant by Western blot)
- Assay type: cell-based
- CONDITION PARAMETERS: PMA-differentiated THP-1, LPS 50 ng/ml 4 h, compound 30 min, nigericin 15 μM 45 min; caspase-1 p20 Western blot
- Protocol: THP-1 cell lines (procell, #CL-0233) were cultured in RPMI-1640 medium (Gibco, #C11875500BT) supplemented with 10% FBS, 100 U/ml penicillin, 100 µg/ml streptomycin and 0.05 mM β-mercaptoethanol (BME). THP-1 cells were seeded at 5×10^5/ml in 12 well plates and were differentiated into macrophages by incubation with 5 ng/ml PMA (Sigma, #P8139-1MG) for 48 h. […] FIG. 1. […] Caspase-1 (p20) in supernatants were measured by Western blots.
pIC50: −log10 of the molar value.
ATTRIBUTE MEASURED: pIC50

Use the examples below as a reference point.
1) Cc1cc(Br)cc(C)c1-n1nc2nc(N3CCOCC3)[nH]c(=O)c2n1 [Compound 1]    > 8.60
2) O=c1[nH]c(N2CCCC2)nc2nn(-c3c(F)cc(Br)cc3Cl)nc12 [Compound 98]    8.12

In the following, a different compound is considered.
# compound Cc1cc(C2CC2)cc(C)c1-n1nc2nc(N3CCOCC3)[nH]c(=S)c2n1 [Compound 4] ; its pIC50 = < 6.00

====

- TEST TARGET: NLRP3 (Homo sapiens)
- Construct: host or cells: THP-1 cells, PMA-differentiated, LPS-primed, nigericin-stimulated
- ASSAY COMMENT: THP-1 pyroptosis assay (caspase-1 p20 in supernatant by Western blot)
- Type: cell-based
- CONDITION PARAMETERS: PMA-differentiated THP-1, LPS 50 ng/ml 4 h, compound 30 min, nigericin 15 μM 45 min; caspase-1 p20 Western blot
pIC50: −log10 of the molar value.
Could you please report measured pIC50 for the items listed next?

Use the examples below as a reference point.
1. CCN1CCN(c2nc3nn(-c4c(C)cc(C5CC5)cc4C)nc3c(=O)[nH]2)CC1    > 7.40
2. Cc1cc(Br)cc(C)c1-n1nc2nc(N3CCOCC3)[nH]c(=S)c2n1    > 5.80
3. Cc1cc(C2CC2)cc(C)c1-n1nc2nc(N3CCOCC3)[nH]c(=O)c2n1    > 8.30

In the following, a different compound is considered.
# compound "Cc1cc(C2CC2)cc(C)c1-n1nc2nc(N3CCCC3)[nH]c(=O)c2n1" ; its pIC50 = ≥ 9.00

====

- TEST TARGET: NLRP3 (Homo sapiens)
- Construct: host or cells: THP-1 cells, PMA-differentiated, LPS-primed, nigericin-stimulated
- ASSAY COMMENT: IL-1β assay (ELISA of THP-1 culture supernatant)
- Format: cell-based
- CONDITION PARAMETERS: PMA-differentiated THP-1, LPS 50 ng/ml 4 h, compound 30 min, nigericin 15 μM 45 min; Human IL-1β ELISA
pIC50: −log10 of the molar value.
ATTRIBUTE MEASURED: pIC50

Use the examples below as a reference point.
1) Cc1cc(Br)cc(C)c1-n1nc2nc(N3CCCC3)[nH]c(=O)c2n1    > 8.30
2) Cc1cc(Br)cc(C)c1-n1nc2nc(N3CCOCC3)[nH]c(=S)c2n1    > 5.80
3) O=c1[nH]c(N2CCCC2)nc2nn(-c3ccc(Br)cc3C(F)(F)F)nc12    > 8.00

Your task in this section: give pIC50 for each listed record.
1. Cc1cc(Br)cc(C)c1-n1nc2nc(N3CCOCC3)[nH]c(=O)c2n1
2. O=c1[nH]c(N2CCOCC2)nc2nn(-c3c(F)cc(C4CC4)cc3Cl)nc12
3. O=c1[nH]c(N2CCCC2)nc2nn(-c3ccc(Br)cc3Cl)nc12
4. Cc1cc(C2CC2)cc(C)c1-n1nc2nc(N(C)CCN(C)C)[nH]c(=O)c2n1
5. Cc1cc(C2CC2)cc(F)c1-n1nc2nc(N3CCOCC3)[nH]c(=O)c2n1

**A:**
1. > 7.70
2. > 8.00
3. > 7.70
4. > 7.00
5. > 8.00

Your task in this section: give pIC50 for each listed record.
1. O=c1[nH]c(N2CCCC2)nc2nn(-c3ccc(C4CC4)cc3C(F)(F)F)nc12
2. Cc1cc(C2CC2)cc(C)c1-n1nc2nc(N3CCOCC3)[nH]c(=S)c2n1
3. Cc1cc(C2CC2)cc(C)c1-n1nc2nc(N3CCOCC3)[nH]c(=O)c2n1
4. Cc1cc(C2CC2)cc(C)c1-n1nc2nc(N3CCOC[C@H]3C)[nH]c(=O)c2n1

**A:**
["> 8.00", "< 6.00", "> 7.82", "> 7.48"]
